REPORTED_ENDPOINT: melting point

Known results for compounds:
- S=C(NCc1cccs1)Nc1ccc2ncnc(Nc3cccc(Cl)c3)c2c1: 178.8 to 180.7 °C
- C#Cc1cccc(Nc2ncnc3ccc(NC(=O)NCc4cccc(Cl)c4)cc23)c1: 222.4 to 228.8 °C
- COc1cccc(CNC(=S)Nc2ccc3ncnc(Nc4cccc(Cl)c4)c3c2)c1: 183 to 185 °C
- O=C(NC(=O)c1ccccc1)Nc1ccc2ncnc(Nc3cccc(Cl)c3)c2c1: 252.4 to 254 °C
- COc1ccc(CNC(=S)Nc2ccc3ncnc(Nc4cccc(Cl)c4)c3c2)c(OC)c1: 204 to 206 °C

Problem: What value of melting point has been recorded for this entry: `O=C(NC(=S)Nc1ccc2ncnc(Nc3cccc(Cl)c3)c2c1)c1ccccc1`
Result: 186.1 to 188.5 °C

Problem: What value of melting point has been recorded for this entry: `CC(C)(C)NC(=S)Nc1ccc2ncnc(Nc3cccc(Cl)c3)c2c1`
Result: 177.5 to 179.4 °C

Problem: What value of melting point has been recorded for this entry: `S=C(Nc1ccc2ncnc(Nc3cccc(Cl)c3)c2c1)NC1CCCC1`
Result: 229.1 to 231.6 °C

Problem: What value of melting point has been recorded for this entry: `Fc1ccc(CNC(=S)Nc2ccc3ncnc(Nc4cccc(Cl)c4)c3c2)c(F)c1`
Result: 178 to 180 °C

---

Experiment: Cell viability (WST-1), A549
Assay type: cell-based
Settings: human, A549 cells, mean ± SEM, n = 3
Method: Cells were incubated with the WST-1 reagent (Thermo Fisher Scientific, Waltham, MA, USA) at 37 °C for 2 h. The cell viability was determined by spectrophotometer at 450 nm.
In this section we review reported viability at 10 µM values for a set of compounds.
Numeric only. Scale: %

• S=C(Nc1ccc2ncnc(Nc3cccc(Cl)c3)c2c1)NC1CC1 = 103
• S=C(NCc1ccccc1)Nc1ccc2ncnc(Nc3cccc(Cl)c3)c2c1 [A, reference compound] = 81.7

Problem: What value of viability at 10 µM has been recorded for this entry: `C#Cc1cccc(Nc2ncnc3ccc(NC(=O)NCc4cccc(Cl)c4)cc23)c1`
Result: 98.6

Problem: What value of viability at 10 µM has been recorded for this entry: `O=C(NC(=O)c1ccccc1)Nc1ccc2ncnc(Nc3cccc(Cl)c3)c2c1`
Result: 100

---

In this section we review reported viability at 10 µM values for a set of compounds.
Assay: Cell viability (WST-1), A549
Assay type: cell-based
Settings: human, A549 cells, mean ± SEM, n = 3
Numeric only. Scale: %

Known results for compounds:
* CC(C)(C)c1ccc(CNC(=S)Nc2ccc3ncnc(Nc4cccc(Cl)c4)c3c2)cc1 | 91.1
* Fc1ccc(CNC(=S)Nc2ccc3ncnc(Nc4cccc(Cl)c4)c3c2)cc1 | 65.3

Turning to the following compound.
Problem: What value of viability at 10 µM has been recorded for this entry: `S=C(NCc1cccs1)Nc1ccc2ncnc(Nc3cccc(Cl)c3)c2c1`
Result: 50.7

---

Test: Cell viability (WST-1), HEK293
Format: cell-based
Conditions: human, HEK293 cells, mean ± SEM, n = 3
In this section we review reported viability at 10 µM values for a set of molecules.
Numeric only. Scale: %

Known results for molecules:
* S=C(Nc1ccc2ncnc(Nc3cccc(Cl)c3)c2c1)NC1CC1 | 103
* FC(F)(F)c1ccc(CNC(=S)Nc2ccc3ncnc(Nc4cccc(Cl)c4)c3c2)cc1 | 68.9
* COc1ccc(CNC(=S)Nc2ccc3ncnc(Nc4cccc(Cl)c4)c3c2)cc1 | 101
* S=C(NCc1ccccc1)Nc1ccc2ncnc(Nc3cccc(Cl)c3)c2c1 [A, reference compound] | 72.4
* O=C(NCc1cccc(F)c1)Nc1ccc2ncnc(Nc3cccc(Cl)c3)c2c1 | 95.5
* COc1ccc(CNC(=S)Nc2ccc3ncnc(Nc4cccc(Cl)c4)c3c2)c(OC)c1 | 85.9
* S=C(NCc1cccnc1)Nc1ccc2ncnc(Nc3cccc(Cl)c3)c2c1 | 62.8
* S=C(NCC1CC1)Nc1ccc2ncnc(Nc3cccc(Cl)c3)c2c1 | 75.7

Problem: What value of viability at 10 µM has been recorded for this entry: `CC(C)(C)c1ccc(CNC(=S)Nc2ccc3ncnc(Nc4cccc(Cl)c4)c3c2)cc1`
Result: 73.9

---

System: dTHP−1 cells
Experiment: Cell viability of dTHP-1 cells with or without LPS
Type: cell-based, human
Conditions: 5 μM (so in the source); no LPS; in % (unit assumed)
REPORTED_ENDPOINT: Cell viability of dTHP-1 cells, 5 μM, without LPS
The answer should be written as a number, with no unit following it.

Known results for compounds:
- S=C(Nc1ccc2ncnc(Nc3cccc(Cl)c3)c2c1)NC1CCCC1: 30.0
- COc1ccc(CNC(=S)Nc2ccc3ncnc(Nc4cccc(Cl)c4)c3c2)c(OC)c1: 96.8
- COc1ccc(CNC(=S)Nc2ccc3ncnc(Nc4cccc(Cl)c4)c3c2)cc1: 94.2
- S=C(Nc1ccc2ncnc(Nc3cccc(Cl)c3)c2c1)NC1CC1: 84.5
- CC(C)(C)NC(=S)Nc1ccc2ncnc(Nc3cccc(Cl)c3)c2c1: 42.5

Problem: What value of Cell viability of dTHP-1 cells, 5 μM, without LPS has been recorded for this entry: `Fc1ccc(CNC(=S)Nc2ccc3ncnc(Nc4cccc(Cl)c4)c3c2)c(F)c1`
Result: 43.6

Problem: What value of Cell viability of dTHP-1 cells, 5 μM, without LPS has been recorded for this entry: `S=C(NCC1CC1)Nc1ccc2ncnc(Nc3cccc(Cl)c3)c2c1`
Result: 87.6

---

Tested on: dTHP−1 cells
Test: Cell viability of dTHP-1 cells with or without LPS
Type: cell-based, human
Settings: 7.5 μM; no LPS; in % (unit assumed)
Description: The HEK-293 (ATCC Cat# CRL-1573, RRID:CVCL_0045) and human monocytic THP−1 cells (ATCC Cat# TIB-202, RRID:CVCL_0006) were, respectively, cultured in DMEM and RPMI 1640 media supplemented with 10% fetal bovine serum, 2 mM L-glutamine, and 1× Antibiotic-Antimycotic at 37 °C in a humidified incubator with 5% CO2. […] Cells were incubated with the WST-1 reagent (Thermo Fisher Scientific, Waltham, MA, USA) at 37 °C for 2 h. The cell viability was determined by spectrophotometer at 450 nm. […]
In this section we review reported Cell viability of dTHP-1 cells, 7.5 μM, without LPS values for a set of compounds.
The answer should be written as a number, with no unit following it.

• Fc1ccc(CNC(=S)Nc2ccc3ncnc(Nc4cccc(Cl)c4)c3c2)c(F)c1 = 62.0
• COc1ccc(CNC(=S)Nc2ccc3ncnc(Nc4cccc(Cl)c4)c3c2)c(OC)c1 = 94.4
• CC(C)(C)NC(=S)Nc1ccc2ncnc(Nc3cccc(Cl)c3)c2c1 = 78.0
• S=C(Nc1ccc2ncnc(Nc3cccc(Cl)c3)c2c1)NC1CCCC1 = 60.3
• S=C(Nc1ccc2ncnc(Nc3cccc(Cl)c3)c2c1)NC1CC1 = 94.3

Problem: What value of Cell viability of dTHP-1 cells, 7.5 μM, without LPS has been recorded for this entry: `COc1ccc(CNC(=S)Nc2ccc3ncnc(Nc4cccc(Cl)c4)c3c2)cc1`
Result: 99.2

Problem: What value of Cell viability of dTHP-1 cells, 7.5 μM, without LPS has been recorded for this entry: `S=C(NCC1CC1)Nc1ccc2ncnc(Nc3cccc(Cl)c3)c2c1`
Result: 82.7

---

Test: Cell viability (WST-1), A549
Format: cell-based
Conditions: human, A549 cells, mean ± SEM, n = 3
In this section we review reported viability at 10 µM values for a set of compounds.

Known results for compounds:
• S=C(Nc1ccc2ncnc(Nc3cccc(Cl)c3)c2c1)NC1CCCC1 = 99.9%
• CC(C)(C)NC(=S)Nc1ccc2ncnc(Nc3cccc(Cl)c3)c2c1 = 98.1%
• Fc1ccc(CNC(=S)Nc2ccc3ncnc(Nc4cccc(Cl)c4)c3c2)c(F)c1 = 75.5%
• S=C(NCC1CC1)Nc1ccc2ncnc(Nc3cccc(Cl)c3)c2c1 = 79.1%

Problem: What value of viability at 10 µM has been recorded for this entry: `COc1ccc(CNC(=S)Nc2ccc3ncnc(Nc4cccc(Cl)c4)c3c2)c(OC)c1`
Result: 99.5%

Problem: What value of viability at 10 µM has been recorded for this entry: `S=C(NCc1ccc(Cl)cc1)Nc1ccc2ncnc(Nc3cccc(Cl)c3)c2c1`
Result: 98.1%

---

Molecular target: Recombinant EGFR kinase (Homo sapiens, UniProt P00533)
Sequence (P00533 25-1210): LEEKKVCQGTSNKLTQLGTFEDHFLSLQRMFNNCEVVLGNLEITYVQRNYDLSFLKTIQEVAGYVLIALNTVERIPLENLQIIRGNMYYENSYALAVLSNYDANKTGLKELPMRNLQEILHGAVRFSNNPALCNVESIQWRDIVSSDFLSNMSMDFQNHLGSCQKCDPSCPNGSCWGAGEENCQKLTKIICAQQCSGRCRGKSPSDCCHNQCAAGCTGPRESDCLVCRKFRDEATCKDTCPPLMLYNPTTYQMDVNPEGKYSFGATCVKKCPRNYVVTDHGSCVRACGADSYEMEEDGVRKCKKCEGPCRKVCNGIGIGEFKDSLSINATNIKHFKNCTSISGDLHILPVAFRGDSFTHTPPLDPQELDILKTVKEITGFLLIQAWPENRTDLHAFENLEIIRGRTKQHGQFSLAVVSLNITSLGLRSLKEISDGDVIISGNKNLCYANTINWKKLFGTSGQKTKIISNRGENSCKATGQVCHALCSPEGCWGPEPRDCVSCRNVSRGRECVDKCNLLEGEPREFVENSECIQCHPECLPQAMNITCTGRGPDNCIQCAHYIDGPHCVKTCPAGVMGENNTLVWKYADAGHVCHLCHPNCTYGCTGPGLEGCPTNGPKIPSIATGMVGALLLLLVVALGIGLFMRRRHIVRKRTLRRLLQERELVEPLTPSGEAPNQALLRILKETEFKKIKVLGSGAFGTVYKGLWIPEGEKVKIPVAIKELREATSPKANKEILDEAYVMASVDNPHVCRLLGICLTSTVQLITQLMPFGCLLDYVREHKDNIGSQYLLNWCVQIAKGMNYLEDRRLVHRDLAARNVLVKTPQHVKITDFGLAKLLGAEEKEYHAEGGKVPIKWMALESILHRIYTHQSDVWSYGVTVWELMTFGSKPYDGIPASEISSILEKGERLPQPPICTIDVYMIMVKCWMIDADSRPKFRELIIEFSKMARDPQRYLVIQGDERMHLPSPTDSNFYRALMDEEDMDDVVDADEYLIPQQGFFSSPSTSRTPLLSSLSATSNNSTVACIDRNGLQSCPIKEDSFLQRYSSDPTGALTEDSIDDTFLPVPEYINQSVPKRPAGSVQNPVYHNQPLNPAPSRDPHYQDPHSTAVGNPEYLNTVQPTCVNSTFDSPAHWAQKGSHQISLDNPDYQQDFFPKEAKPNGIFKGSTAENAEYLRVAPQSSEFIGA
Assay: Recombinant EGFR kinase activity
Type: biochemical
Conditions: read-out: Recombinant EGFR Kinase Activity (%inh at 150 nM)
Param threshold (60%) applies to inhibition at 0.15 µM; output yes when value >= threshold, no when value < threshold.

Worked examples follow.
• S=C(NCc1cccs1)Nc1ccc2ncnc(Nc3cccc(Cl)c3)c2c1 = yes
• S=C(Nc1ccc2ncnc(Nc3cccc(Cl)c3)c2c1)NC1CCCC1 = no
• Fc1ccc(CNC(=S)Nc2ccc3ncnc(Nc4cccc(Cl)c4)c3c2)c(F)c1 = yes
• S=C(NCc1ccc(Cl)cc1)Nc1ccc2ncnc(Nc3cccc(Cl)c3)c2c1 = no
• COc1ccc(CNC(=S)Nc2ccc3ncnc(Nc4cccc(Cl)c4)c3c2)c(OC)c1 = no

Problem: Can `S=C(NCc1ccco1)Nc1ccc2ncnc(Nc3cccc(Cl)c3)c2c1` be said to have inhibition at 0.15 µM at or above 60%?
Result: yes

Problem: Can `CC(C)(C)c1ccc(CNC(=S)Nc2ccc3ncnc(Nc4cccc(Cl)c4)c3c2)cc1` be said to have inhibition at 0.15 µM at or above 60%?
Result: no

Problem: Can `O=C(NCc1cccc(F)c1)Nc1ccc2ncnc(Nc3cccc(Cl)c3)c2c1` be said to have inhibition at 0.15 µM at or above 60%?
Result: no

The measured values listed here are drawn from paper PMC9322122.
